All figures here come from PubChem BioAssay AID1240.

Overview of recorded displacement for various compounds
Biological target: Bcl-2-like protein 10 (Homo sapiens) (UniProt Q9HD36)
Sequence (Q9HD36 whole entry, looked up): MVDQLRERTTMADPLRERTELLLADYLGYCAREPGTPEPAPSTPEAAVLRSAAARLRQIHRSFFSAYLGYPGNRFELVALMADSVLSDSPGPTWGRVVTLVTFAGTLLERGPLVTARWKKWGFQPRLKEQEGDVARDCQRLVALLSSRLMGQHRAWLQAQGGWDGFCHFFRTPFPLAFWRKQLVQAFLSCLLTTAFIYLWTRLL
Test: TR3 peptide-Bcl-B binding displacers, biochemical primary FP assay, phenotype converters (AID 1240);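 note: 0% = Bcl-B with tracer peptide and DMSO and 100% = tracer peptide lacking Bcl-B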
Conditions: GST-Bcl-B / FITC-TR3 peptide fluorescence polarization; stronger effect = higher value; compound at 3.75 mg/L
The whole screen tested about 50,000 compounds, of which about 800 (1.6%) showed an effect of 50% or more. The full list was thinned out, with strong results kept by preference.
assayEndpoint: displacement (%)

- Cc1c(Nc2nc3nonc3nc2Nc2cccc(Cl)c2)c(=O)n(-c2ccccc2)n1C: 10
- NNC(=O)CSc1nc2ccccc2n1Cc1ccccc1: -9.6
- CCC1CCc2c(sc(NC(=O)C3CCCC3)c2C(N)=O)C1 (stereo not drawn): -1.5
- Cc1cccc(N2C(=O)c3cccc4c(N5CCOCC5)ccc(c34)C2=O)c1: 154
- O=C1NC(=Nc2cccnc2)S/C1=C\c1ccc(F)cc1: 3.5
- O=C1c2cccc3c(N4CCNCC4)ccc(c23)C(=O)N1c1ccc(Cl)cc1: 101
- O=C1NC(=Nc2cccnc2)S/C1=C\c1ccc(Br)cc1: 12.1
- O=C(COc1ccc(Cl)cc1)Nc1ccc2oc(-c3ccccc3)nc2c1: -6.4
- COc1ccc(N2C(=O)c3cccc4c(N5CCNCC5)ccc(c34)C2=O)cc1: 37.2
- CCOC(=O)c1ccccc1NC(=O)CN(c1ccc(Br)cc1)S(C)(=O)=O: -5
- O=C(Nc1ccc2oc(-c3ccncc3)nc2c1)c1cccnc1: 61.6
- O=C1NC(=Nc2cccnc2)S/C1=C\c1cccc(F)c1: 146
- O=C(O)C(Cc1ccccc1)N1C(=O)/C(=C/c2ccc(O)cc2)SC1=S (stereo not drawn): -23.7
- O=S(=O)(c1ccc2ccccc2c1)N(CC(O)CN1CCOCC1)c1ccccc1 (stereo not drawn): -0.7
- Cc1ccc(-c2nc3cc(NC(=O)COc4ccccc4C)ccc3o2)cc1: -6.6
- O=C(Nc1ccc2oc(-c3ccccc3)nc2c1)c1ccncc1: -3.2
- O=c1oc2ccccc2nc1/C=C(\O)c1cccs1: 61.3
- O=C1NC(=Nc2cccc(O)c2)S/C1=C\c1cccc(O)c1: 1.9
- O=C(COc1ccccc1Cl)Nc1ccc2oc(-c3ccncc3)nc2c1: 136
- COc1ccc(CC(=O)Nc2sc3c(c2C(=O)Nc2ccccc2Cl)CCCC3)cc1: -9.7
- CSC(=O)NC1(Cc2ccc(O)cc2)CCCCC1: -4.1
- O=C(N/N=C/c1ccc(Cl)cc1)c1ccc(O)cc1: -1.1
- COc1ccc(/C(O)=C/c2nc3ccccc3[nH]c2=O)cc1: 6.8

----------
Target: Bcl-2-like protein 10 (Homo sapiens)
Experiment: TR3 peptide-Bcl-B binding displacers, biochemical primary FP assay, phenotype converters (AID 1240);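 note: 0% = Bcl-B with tracer peptide and DMSO and 100% = tracer peptide lacking Bcl-B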
Conditions: GST-Bcl-B / FITC-TR3 peptide fluorescence polarization; stronger effect = higher value; compound at 3.75 mg/L
Out of some 50,000 compounds screened, about 800 (1.6%) showed an effect of 50% or more. Many of the other results were omitted from the sample, so strong results are more common in it than they were.
displacement reference
assayEndpoint: displacement (%)

- COc1cc(/C=C2\C=C(c3ccc(Cl)cc3)OC2=O)c([N+](=O)[O-])cc1OC: -11.8
- C=CCN1C(=O)/C(=C\c2ccc(-c3ccc([N+](=O)[O-])cc3)o2)C(=O)NC1=S: 12.1
- CC(C)C1=NN2C(=N)/C(=C/c3ccc(-c4ccc(F)c(Cl)c4)o3)C(=O)N=C2S1: 146
- CN1C(=O)/C(=C\c2ccc(-c3ccc(F)c(Cl)c3)o2)SC1=S: 3.9
- COc1ccc(/C=C2\C=C(c3ccc(Br)cc3)OC2=O)cc1[N+](=O)[O-]: 70
- C=CCN1C(=O)/C(=C\c2cn(C)c3ccccc23)C(=O)NC1=S: -18.2
- C=CCN1C(=O)/C(=C\c2cn(Cc3ccc([N+](=O)[O-])cc3)c3ccccc23)C(=O)NC1=S: 87.4
- COc1ccc(/C=C2/C(=N)N3N=C(C(C)C)SC3=NC2=O)cc1OC: 133
- CCC1=NN2C(=N)/C(=C/c3ccc(OC)c(OC)c3)C(=O)N=C2S1: -1.4

----------
Target: Bcl-2-like protein 10 (Homo sapiens)
Test: TR3 peptide-Bcl-B binding displacers, biochemical primary FP assay, phenotype converters (AID 1240);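 note: 0% = Bcl-B with tracer peptide and DMSO and 100% = tracer peptide lacking Bcl-B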
Settings: GST-Bcl-B / FITC-TR3 peptide fluorescence polarization; stronger effect = higher value; compound at 3.75 mg/L
Out of some 50,000 compounds screened, about 800 (1.6%) showed an effect of 50% or more. The sample as a whole holds a higher share of strong results than the screen did.
Known displacement of a selection of molecules
assayEndpoint: displacement (%)

- COc1ccc(/C=C2/SC(=Nc3ccc(F)cc3)NC2=O)c(OC)c1: 11.6
- O=[N+]([O-])c1ccc(-c2ccc(/C=N/n3cnnc3)o2)cc1: 139
- COc1cc(NC(=O)c2cc(-c3cccs3)nc3ccccc23)c(OC)cc1Cl: 55.2
- COc1ccccc1NC(=O)c1cc(-c2cccs2)nc2ccccc12: -3.7
- O=[N+]([O-])c1ccccc1-c1ccc(/C=N/n2cnnc2)o1: 8.8
- COc1ccc(-c2nnc(SCC(=O)Nc3ccc(C)cc3Br)o2)cc1: 14.5
- COc1ccc(-c2cc(C(=O)Nc3ccccc3F)c3ccccc3n2)c(OC)c1: 82.3
- O=C1NC(=Nc2ccc(F)cc2)S/C1=C\c1ccco1: 32.8
- O=C1S/C(=C/c2ccc(-c3cccc([N+](=O)[O-])c3)o2)C(=O)N1c1ccccc1: 111
- Cc1ccccc1/C=C1/SC(=Nc2ccc(F)cc2)NC1=O: 7.8
- COC(=O)c1sccc1NC(=O)c1cc(-c2cccs2)nc2ccccc12: 60.4

----------
Target: Bcl-2-like protein 10 (Homo sapiens) (UniProt Q9HD36)
Experiment: TR3 peptide-Bcl-B binding displacers, biochemical primary FP assay, phenotype converters (AID 1240);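 note: 0% = Bcl-B with tracer peptide and DMSO and 100% = tracer peptide lacking Bcl-B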
Conditions: GST-Bcl-B / FITC-TR3 peptide fluorescence polarization; stronger effect = higher value; compound at 3.75 mg/L
Among all 50,000 compounds or so, about 800 (1.6%) showed an effect of 50% or more. The entries come from a sample that favours strong results as a whole.
Measured displacement accompanies every entry in the list below.
assayEndpoint: displacement (%)

• O=C(/C=C/c1ccc(-c2cccc([N+](=O)[O-])c2)o1)Nc1ccc(Cl)cc1 = 4.5
• CCc1ccccc1NC(=O)C(F)(Cl)C(F)(F)F (stereo unspecified) = -3.1
• O=C(/C=C/c1ccc(-c2cccc([N+](=O)[O-])c2)o1)c1ccc(F)cc1 = 3.4
• COc1cc(/C=C2/SC(=S)N(C)C2=O)ccc1OCc1ccc(Br)cc1 = 88.9
• N#CC(C#N)=Cc1ccc(-c2cc(Cl)ccc2Cl)o1 = 93.5
• CCOc1cc(/C=C2\SC(=S)N(CC(=O)OC)C2=O)ccc1O = 122
• CCN1C(=O)/C(=C\c2cccc(OCCOc3cccc(OC)c3)c2)SC1=S = 3.4
• CC1(C)CC(NC(=S)Nc2cccc(Cl)c2)CC(C)(C)N1 = -3.3
• CC(=O)/C=C/c1ccc(-c2cccc([N+](=O)[O-])c2)o1 = -5.2
• O=C(/C=C\c1ccc(-c2cc(Cl)ccc2Cl)o1)c1ccccc1 = 24.9
• O=C(/C=C/c1ccc(-c2cc(Cl)ccc2Cl)o1)c1ccco1 = 126

----------
Target: Bcl-2-like protein 10 (Homo sapiens) (UniProt Q9HD36)
Experiment: TR3 peptide-Bcl-B binding displacers, biochemical primary FP assay, phenotype converters (AID 1240);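 note: 0% = Bcl-B with tracer peptide and DMSO and 100% = tracer peptide lacking Bcl-B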
Conditions: GST-Bcl-B / FITC-TR3 peptide fluorescence polarization; stronger effect = higher value; compound at 3.75 mg/L
Hit rate of the full screen: of about 50,000 compounds, about 800 (1.6%) showed an effect of 50% or more. The sample as a whole holds a higher share of strong results than the screen did.
The entries below are paired with their reported displacement.
assayEndpoint: displacement (%)

- CCc1cc2c(=O)c(-c3nc4ccccc4s3)coc2c(CN2CCOCC2)c1O: 1
- CCOC(=O)C1=C(C)NC(=O)CC1c1ccccc1I (configuration not stated): -10.7
- O=C(CSc1ncn[nH]1)c1ccc(Br)cc1: 8.5
- Cc1ccc(CNS(=O)(=O)c2ccccc2[N+](=O)[O-])cc1: 5.2
- CCOC(=O)c1c(NC(=O)COc2c(C)cc(C)cc2C)sc(C(=O)Nc2ccccc2)c1C: 13.1
- CCOC(=O)CN1C(c2ccccc2OC)Nc2ccc(Br)cc2C1c1ccccc1 (configuration not stated): 15.6
- Cc1oc2c(CN3CCN(C)CC3)c(O)ccc2c(=O)c1-c1nc2ccccc2s1: 11.7
- O=C(Nc1cccc2ccccc12)c1cc(-c2ccco2)nc2ccccc12: 34.2
- O=c1[nH]c(=O)n(-c2ccccc2)c(O)c1C(c1cccnc1)c1c(O)n(-c2ccccc2)c(=O)[nH]c1=O: -5
- CN(C)c1ccc(C=Nn2cnnc2)cc1: -7.2
- COCCCNC(=O)c1ccc(C(=O)NCCCOC)cc1: -6.5
- Cc1cc(C)nc(SCC(=O)Nc2ccc(C)c(NC(=O)CSc3nc(C)cc(C)n3)c2)n1: 23.5
- COC1C(C)=C(c2ccccc2F)C(=O)N1Cc1ccccc1 (configuration not stated): 14.3
- CCOC(=O)c1c(NC(C)=O)sc(I)c1-c1ccccc1: 0.8
- C/C(=C\C(=O)c1ccc(C)cc1)Nc1ccc(I)cc1: 7.2
- CN1CCN(Cc2c(O)ccc3cc(-c4ccccn4)c(=O)oc23)CC1: 25.9
- CN1CCN(Cc2c(O)ccc3cc(-c4nc5ccccc5s4)c(=O)oc23)CC1: 121
- CC(C)c1ccccc1OCCCN1CCOCC1: -6
- O=C(NNC(=O)c1cc([N+](=O)[O-])ccc1Cl)c1ccc([N+](=O)[O-])cc1: -4.8
- CCc1cc2c(=O)c(-c3nc4ccccc4s3)coc2c(CN(C)C)c1O: -15
- CC(=O)Nc1cccc(NS(=O)(=O)c2ccccc2)c1: 9.1
- CCOc1ccc(/C=C(/C#N)c2nc(-c3ccc(Br)cc3)cs2)c(OCC)c1: 38.9
